- TARGET_OR_TEST_SYSTEM: Tyrosine-protein phosphatase non-receptor type 1 (Homo sapiens, UniProt P18031)
- Sequence (P18031 whole entry): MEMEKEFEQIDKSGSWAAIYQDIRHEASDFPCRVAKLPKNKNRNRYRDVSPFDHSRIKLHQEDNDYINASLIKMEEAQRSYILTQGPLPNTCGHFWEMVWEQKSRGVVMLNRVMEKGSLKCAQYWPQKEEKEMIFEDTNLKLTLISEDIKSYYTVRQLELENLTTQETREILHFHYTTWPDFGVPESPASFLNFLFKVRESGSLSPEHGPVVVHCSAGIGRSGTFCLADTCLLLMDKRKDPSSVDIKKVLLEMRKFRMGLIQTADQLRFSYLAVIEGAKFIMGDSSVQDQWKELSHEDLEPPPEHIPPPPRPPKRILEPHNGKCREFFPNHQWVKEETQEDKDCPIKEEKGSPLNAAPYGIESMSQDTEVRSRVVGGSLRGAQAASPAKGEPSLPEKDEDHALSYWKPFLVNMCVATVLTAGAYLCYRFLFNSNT
- ASSAY_NOTES: Inhibition of recombinant human PTP1B expressed in Escherichia coli using p-nitrophenyl phosphate as substrate preincubated for 15 mins followed by substrate addition and measured after 60 mins
Recorded pIC50 for the following molecules
To interpret pIC50, take it as minus log10 of a concentration measured in moles per litre.

1) CC1(C)C[C@H]2[C@@H]3C(=O)CC[C@]4(C)[C@@]5(C)c6[nH]c7ccccc7c6C[C@@H]5CC[C@@]34O[C@@]2(O)[C@@H]1O    4.85

// field: pIC50; key: C[C@]12CC[C@@H]3OCC(=O)C=C3[C@]1(O)CC[C@H]1Cc3c([nH]c4ccccc34)[C@@]12C ; value = 4.57

For record CC(C)(O)[C@H]1O[C@H]2CC[C@@]3(C)[C@@](O)(CC[C@H]4C(=O)c5c([nH]c6ccccc56)[C@@]43C)C2=CC1=O the listed pIC50 is 4.64

For record CC(C)(O)[C@H]1O[C@@]2(O)CC[C@@]3(C)C(=CC[C@H]4Cc5c([nH]c6ccccc56)[C@@]43C)C2=CC1=O the listed pIC50 is 4.89
